Items are presented alongside their recorded normalized RNA/DNA level without ligand (log10).
B1: library; a variant is named by its letters at N, in order (parent)
chain: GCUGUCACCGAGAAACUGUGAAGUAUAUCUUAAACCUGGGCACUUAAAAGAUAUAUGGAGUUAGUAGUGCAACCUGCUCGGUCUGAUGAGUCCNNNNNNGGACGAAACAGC

variants of: B1; assay: normalized RNA/DNA level without ligand (relative to sTRSVctl = 100) (log10 (% of sTRSVctl)); HEK293T; ligand: cyclic di-GMP (c-di-GMP-II aptamer); higher = less ribozyme self-cleavage, higher mRNA level; settings: reporter: mCherry (pCS4076), ligand present: no
# output: bare number, no unit

normalized RNA/DNA level without ligand (log10) for GCUGUCACCGAGAAACUGUGAAGUAUAUCUUAAACCUGGGCACUUAAAAGAUAUAUGGAGUUAGUAGUGCAACCUGCUCGGUCUGAUGAGUCCUCUAUCGGACGAAACAGC [UCUAUC] ?
1.7

normalized RNA/DNA level without ligand (log10) for GCUGUCACCGAGAAACUGUGAAGUAUAUCUUAAACCUGGGCACUUAAAAGAUAUAUGGAGUUAGUAGUGCAACCUGCUCGGUCUGAUGAGUCCCGUUUGGGACGAAACAGC [CGUUUG] ?
1.71

normalized RNA/DNA level without ligand (log10) for GCUGUCACCGAGAAACUGUGAAGUAUAUCUUAAACCUGGGCACUUAAAAGAUAUAUGGAGUUAGUAGUGCAACCUGCUCGGUCUGAUGAGUCCCCGCGUGGACGAAACAGC [CCGCGU] ?
1.69
